Where these numbers come from: ChEMBL document CHEMBL1201862

- Tested on: T47D
- Assay method text: NCI tumour cell line growth inhibition, 48 h
Active and inactive are the calls of the source. Cut-off read from the data, not from the text of the source: active = GI50 up to about 1.1 µM and inactive = higher.
Labels: active, inactive

* CC1=C(C(=O)NNC(=O)C(N)=O)CC(C(=O)NNC(=O)C(N)=O)=C(C)N1 | inactive
* CCCCn1c(-c2ccc([N+](=O)[O-])cc2)cs/c1=N/N=C1\C(=O)Nc2ccc(Br)cc21 | inactive
* NS(=O)(=O)c1ccc(/N=N/c2cccnc2O)cc1 | inactive
* CN(C)CCNC(=O)c1cccc2c(NC(CCCNC(=N)N)C(=O)O)c3ccccc3[n+](C)c12 (stereo not given) | inactive
* COc1ccc(OC)c2sc(N3C(=O)/C(=C/c4ccc(Cl)cc4)N=C3c3ccccc3)nc12 | inactive
* O=C(CCN1CCOCC1)Nc1ccc2sc3ccccc3c(=O)c2n1 | inactive
* N#CCCN(CCCN(C(=O)Nc1ccccc1)c1ccccc1)C(=O)Nc1ccccc1 | inactive
* NC(Cc1cccnn1)C(=O)O (stereo not given) | inactive
* Cn1c2ccccc2c(=O)c2ccc(Cl)cc21 | inactive
* O=S(=O)(N=S(c1ccc(Cl)cc1)c1ccc(Cl)cc1)c1ccccc1 | inactive
* Cc1ccc(/C=C2\CCC/C(=C\c3ccc(O)c(CN4CCCCC4)c3)C2=O)cc1 | inactive
* CN(C1=NS(=O)(=O)N=C(N(C)c2ccccc2)O1)c1ccccc1 | inactive
* c1ccc(/C(=N\Nc2nc3ccccc3[nH]2)c2ccccn2)cc1 | active
* NC(=O)N/N=C1\CC2C3CC4C2C4C13 (stereo not given) | inactive
* c1ccc2c(c1)CCCN1CCc3ccccc3C21 (stereo not given) | inactive
* CC1=C(\C=C/C(C)=C/C=C/C(C)=C/C=C/C=C(C)\C=C\C=C(C)/C=C/C2=C(C)CCCC2(C)C)C(C)(C)CCC1 | inactive
* CC1OC2/C=C\CC(O)C(C)(C)C3CCC(C)C4(O3)O[B-]35OC(C(=O)OC1C2)C1(OC(CCC1C)C(C)(C)C(O)C/C=C\C1CC(OC(=O)C4O3)C(C)O1)O5 (stereo not given) | inactive
* C[C@@H](c1ccccc1)N1CO[C@@]2(C#Cc3ccc4c(c3)OCO4)CCC[C@@H]12 | inactive
* CSc1ccc(-c2cc(-c3nc4ccccc4[nH]3)nc3[nH]c(-c4nc5ccccc5[nH]4)cc(=O)c23)cc1 | inactive
* CCOC(=O)C1C(c2ccc(OC)cc2)c2c(n[nH]c2O)CC1(C)O (stereo not given) | inactive

###

- System: HOP-62
- Assay method text: NCI tumour cell line growth inhibition, 48 h
The source made the active and inactive calls. Rule as the data show it: active = GI50 up to about 1.1 µM and inactive = higher.
Measured property: GI50

- O=C(NI1OC(=O)c2ccccc21)c1ccc(Cl)cc1: > 100 µM (inactive)
- O=C(Nc1ccccc1)C(=O)C(C(=O)c1ccccc1F)C1OC(=O)c2ccccc21 (stereo unspecified): 42.8 µM (inactive)
- NC1(c2cc3ccccc3s2)CCCC1: > 100 µM (inactive)
- Cc1ccccc1-n1c(=O)c2ncn(CCCl)c2n(-c2ccccc2C)c1=S: > 100 µM (inactive)
- CC(C)S(=O)(=O)ON1C(=O)c2ccc(N(C)C)cc2C1=O: 42.5 µM (inactive)
- CN1CCN(c2ccc3[nH]c(-c4ccc5[nH]c(-c6ccc(O)cc6)nc5c4)nc3c2)CC1: 250 µM (inactive)
- CN(C)CCNC(=O)c1cccc2c(NC(CCCNC(=N)N)C(=O)O)c3ccccc3[n+](C)c12 (stereo unspecified): 68.1 µM (inactive)
- NC(=O)N/N=C1\CC2C3CC4C2C4C13 (stereo unspecified): > 100 µM (inactive)
- C[N+]1(C)C/C(=C/c2ccc(F)cc2)C(=O)/C(=C\c2ccc(F)cc2)C1: > 100 µM (inactive)
- NS(=O)(=O)c1ccc(/N=N/c2cccnc2O)cc1: > 100 µM (inactive)
- CC1OC2/C=C\CC(O)C(C)(C)C3CCC(C)C4(O3)O[B-]35OC(C(=O)OC1C2)C1(OC(CCC1C)C(C)(C)C(O)C/C=C\C1CC(OC(=O)C4O3)C(C)O1)O5 (stereo unspecified): 2.08 µM (inactive)
- CC(C)(C)CNCCO: > 100 µM (inactive)
- CCOC(=O)CC(=O)ON(C)C(=O)Cc1ccccc1: > 100 µM (inactive)
- COc1cccc(-n2nnc3c(N)nc(N)nc32)c1: > 100 µM (inactive)
- O=C(/C=C/c1ccc(Cl)cc1)c1cccs1: 26.5 µM (inactive)
- CCCCCCCCCCCCCCCCOCC(COP(=O)(O)OCC1OC(n2cc(CC)c(=O)[nH]c2=O)CC1O)OC(=O)CCCCCCCCCCCCCCC (stereo unspecified): > 100 µM (inactive)
- Cc1ccc(C)n1-c1ccccc1C1SCCCS1: 50.8 µM (inactive)
- Clc1cc(Br)c2c3c(c(Br)cc(Cl)c13)C(Br)=C2Br: 64.3 µM (inactive)
- CN(C1=NS(=O)(=O)N=C(N(C)c2ccccc2)O1)c1ccccc1: 22.9 µM (inactive)
- Cc1ccc(S(=O)(=O)NC(=O)NCCc2c[nH]cn2)cc1: > 100 µM (inactive)
- CCn1cc(C(=O)O)c(=O)c2cc(F)c(N3CCN(CN4C(=O)/C(=N\c5ncc(Cc6cc(OC)c(OC)c(OC)c6)c(N)n5)c5cc(Cl)ccc54)CC3)cc21: > 100 µM (inactive)
